# measurement target: MDM2 (Homo sapiens, UniProt Q00987)
# Sequence (Q00987 whole entry): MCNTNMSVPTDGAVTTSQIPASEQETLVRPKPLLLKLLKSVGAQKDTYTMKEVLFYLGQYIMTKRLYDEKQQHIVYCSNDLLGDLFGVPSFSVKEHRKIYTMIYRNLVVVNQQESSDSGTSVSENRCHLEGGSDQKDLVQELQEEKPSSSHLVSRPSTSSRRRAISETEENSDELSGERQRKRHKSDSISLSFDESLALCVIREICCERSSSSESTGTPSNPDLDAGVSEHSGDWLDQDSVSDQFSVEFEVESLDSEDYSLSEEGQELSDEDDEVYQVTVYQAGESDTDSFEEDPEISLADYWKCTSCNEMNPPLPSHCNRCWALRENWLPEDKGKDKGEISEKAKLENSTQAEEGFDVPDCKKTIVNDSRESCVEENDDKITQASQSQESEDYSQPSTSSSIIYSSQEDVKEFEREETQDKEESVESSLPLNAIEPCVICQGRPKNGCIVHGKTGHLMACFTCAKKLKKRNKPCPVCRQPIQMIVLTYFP
# assay comment: MDM2 binding screen: displacement of fluorescent p53 peptide probe FP53 (fluorescence polarization)
# experimental conditions: Acid 14; replicate; crude macrocycle reactions
Numbered stars: 1 amine (or outer) side, 2 acyl side, 3 side chain; on linkers, the order of the positions; unused ones are H or OH. Bridge positions count the residues as written; N and C are the ends. Square brackets hold non-standard residues; d marks the D form. Peptide text beside a SMILES is read from it. * marks the point of attachment. 2Thenoyl(5-Cl) = O=C(c1ccc(Cl)s1)*; Cysteamide = C(CS[*:3])N[*:1]; Dap = NC[C@H](N)C(=O)O; Mpa = O=C(O)CCS
Reported fraction fluorescent probe displaced, Replicate values for the following molecules.
Please respond with just the number, no unit label.

| molecule | endpoint result |
| --- | --- |
| O=C1CCSSCCNC(=O)[C@H](Cc2c[nH]c3ccccc23)NC(=O)[C@H]2CCCN(C2)C(=O)C2(CCN(C(=O)c3ccc(Cl)s3)CC2)N1 | 0.25 |
| O=C1CCSSCCNC(=O)[C@H](Cc2c[nH]c3ccccc23)NC(=O)[C@@H]2CCCN2C(=O)[C@H](CNC(=O)c2ccc(Cl)s2)N1 [X D3 B1 W Acid 14] ([Mpa][Dap](2Thenoyl(5-Cl))PW-Cysteamide; disulfide 1-C) | 0.10 |

Okay, now this molecule:
Request: For O=C(NC[C@@H]1NC(=O)[C@H]2CCCN(C2)C(=O)CCSSCCNC(=O)[C@H](Cc2c[nH]c3ccccc23)NC1=O)c1ccc(Cl)s1 , write its fraction fluorescent probe displaced, Replicate.
Result: 0.58
